Please respond with reported pest or weed control at 500 g/ha for every item in the list.
system: Kochia (Kochia scoparia); assay: Test A preemergence; type: in vivo; conditions: Bassia scoparia, pre-emergence, 240 h, 500 g ai/ha, Preemergence, visual injury vs untreated controls after approximately 10 d; read-out: Kochia plant response rating (0 to 100 scale where 0 is no effect and 100 is complete control)
Could you give the number and then its unit, please?

Looking up COc1cc([C@H]2CN(C)C(=O)[C@@H]2C(=O)Nc2ccccc2F)cc(C(F)(F)F)c1 , I see its pest or weed control at 500 g/ha listed as 30%

Value of measured pest or weed control at 500 g/ha for the entry CN1C[C@H](c2cc(F)cc(F)c2)[C@@H](C(=O)Nc2ccc(C(F)(F)F)cn2)C1=O : 0%

Item: CN1CC[C@H](c2cccc(Cl)c2)[C@@H](C(=O)Nc2ccccc2S(C)(=O)=O)C1=O | pest or weed control at 500 g/ha: 0%

Memo: COc1c(F)ccc([C@H]2CN(C)C(=O)[C@@H]2C(=O)Nc2ccc(F)c(F)c2F)c1Cl , reported pest or weed control at 500 g/ha: 90%

Notebook: O=C1NC[C@H](c2ccc3c(c2)CCO3)[C@H]1C(=O)Nc1cccc(F)c1F , pest or weed control at 500 g/ha read as 40%

pest or weed control at 500 g/ha reading for O=C1NC[C@H](c2cccc(C(F)(F)F)c2)[C@H]1C(=O)Nc1cccc2c1OC(F)(F)O2 : 60%

Record CN1C[C@H](c2cccc(C3CC3)c2)[C@@H](C(=O)Nc2cccc(F)c2F)C1=O . Reported pest or weed control at 500 g/ha: 80%

Query CN1C[C@H](c2cc(F)cc(F)c2)[C@@H](C(=O)Nc2ccc(C(F)(F)F)nc2)C1=O yields pest or weed control at 500 g/ha of 0%

====

Exercise: for every item that follows, state its recorded Plant response rating, Foxtail, Giant.
system: giant foxtail (Setaria faberii); assay: Test A preemergence; format: in vivo; settings: 125 g ai/ha, Preemergence; visual injury after approximately 10 d; 0 to 100 scale where 0 is no effect and 100 is complete control

Lab note: measured Plant response rating, Foxtail, Giant of Cc1ccc(C2CN(C)C(=O)C2C(=O)Nc2ccccc2F)cc1 (centres unmarked) was 90

# Plant response rating, Foxtail, Giant (compound: O=C1NCC(c2cc(F)cc(C(F)(F)F)c2)C1C(=O)Nc1ccc(F)cc1F (centres unmarked) ) is 90

Form field Plant response rating, Foxtail, Giant, entry O=C1NCC(c2ccsc2Cl)C1C(=O)Nc1ccccc1F (centres unmarked) : 0

Reported Plant response rating, Foxtail, Giant for CN1CC(c2ccc(F)c(F)c2)C(C(=O)Nc2ccccc2S(C)(=O)=O)C1=O (centres unmarked) was 90

Plant response rating, Foxtail, Giant in this record for Cc1ccc(C2CNC(=O)C2C(=O)Nc2ccc(F)cc2F)cc1C(F)(F)F (racemic) [Compound 680] : 60

The compound identified as CS(=O)(=O)c1ccccc1NC(=O)C1C(=O)NCC1c1ccc(C2CC2)cc1 (racemic) registered its Plant response rating, Foxtail, Giant at 80

The value of Plant response rating, Foxtail, Giant measured for the compound CC(C)Oc1cccc(C2CN(C)C(=O)C2C(=O)Nc2cccc(F)c2F)c1 (centres unmarked) turned out to be 90

The reported value for O=C1NCC(c2cccc(C(F)(F)F)c2F)C1C(=O)Nc1cccc(F)c1F (centres unmarked) in terms of Plant response rating, Foxtail, Giant is 90

====

test system: barnyardgrass (Echinochloa crus-galli); test: Test A preemergence; type: in vivo; details: 125 g ai/ha, Preemergence; visual injury after approximately 10 d; 0 to 100 scale where 0 is no effect and 100 is complete control
Kindly state Plant response rating, Barnyardgrass for each of the entries shown.

Entry CN1CC(c2ccc(C(C)(F)F)cc2)C(C(=O)Nc2ccc(F)cc2F)C1=O (stereo not shown) — recorded Plant response rating, Barnyardgrass = 80

Recorded Plant response rating, Barnyardgrass (compound CC(C)Oc1cccc(C2CN(C)C(=O)C2C(=O)Nc2cccc(F)c2F)c1 (stereo not shown) ): 90

Quick note, Plant response rating, Barnyardgrass for Cc1ccc(C2CN(C)C(=O)C2C(=O)Nc2ccccc2S(C)(=O)=O)c(F)c1 (stereo not shown) landed at 90

Recorded Plant response rating, Barnyardgrass (compound CN1CC(c2cccc(Br)c2)C(C(=O)Nc2cccc(F)c2F)C1=O (stereo not shown) ): 90

The reported Plant response rating, Barnyardgrass of the compound O=C1NCC(c2cccc(C(F)(F)F)c2F)C1C(=O)Nc1ccc(F)cc1F (stereo not shown) was 90

What the record says about Cc1cc(C2CNC(=O)C2C(=O)Nc2ccccc2F)cs1 (stereo not shown) : Plant response rating, Barnyardgrass is 90

Given item O=C(Nc1cccc(F)c1F)C1C(=O)N(C2C=CCCC2)CC1c1cccc(C(F)(F)F)c1 (stereo not shown) , the value recorded as its Plant response rating, Barnyardgrass is 30

Query Cc1ccc(C2CN(C)C(=O)C2C(=O)Nc2ccc(F)cc2F)cc1 (stereo not shown) yields Plant response rating, Barnyardgrass of 90

Recorded Plant response rating, Barnyardgrass (compound CN1CC(c2ccc(OC(F)F)cc2)C(C(=O)Nc2cccc(F)c2F)C1=O (stereo not shown) ): 90

CN1CC(c2cccc(OC(F)F)c2)C(C)(C(=O)Nc2cccc(F)c2F)C1=O (stereo not shown) has a reported Plant response rating, Barnyardgrass of 0

====

test system: rice (Oryra sativa); assay: Test B flooded paddy test; assay type: in vivo; conditions: Oryza sativa, 250 g ai/ha, Flood; 0 to 100 scale where 0 is no effect and 100 is complete control; read-out: Rice plant response rating
Parameter: pest or weed control at 250 g/ha
Put your answer as a value accompanied by its unit after it.

// pest or weed control at 250 g/ha lookup, compound = O=C(Nc1ccc(F)c(F)c1F)[C@H]1C(=O)N(C2CC2)CC[C@@H]1c1ccc(F)cc1 , result: 0%

Looking up CN1C[C@H](c2cc(C(F)F)cs2)[C@@H](C(=O)Nc2cccc(F)n2)C1=O , I found its pest or weed control at 250 g/ha recorded as 0%

// COc1ccc([C@H]2CN(C)C(=O)[C@@H]2C(=O)Nc2cccc(F)c2F)cc1F : pest or weed control at 250 g/ha value = 15%

The reported value for CN1C[C@H](c2ccc(C#N)cc2)[C@@H](C(=O)Nc2ccc(F)c(F)c2F)C1=O in terms of pest or weed control at 250 g/ha is 0%

Record summary for CON1CC[C@H](c2ccc(C(F)(F)F)cc2)[C@@H](C(=O)Nc2ccc(F)c(F)c2F)C1=O : reported pest or weed control at 250 g/ha = 0%

// recorded pest or weed control at 250 g/ha for O=C1NC[C@H](c2ccc(C(F)(F)F)cc2)C1C(=O)Nc1c(F)cccc1CO (some centres unmarked) : 0%

Please fill in: pest or weed control at 250 g/ha reported for CN1C[C@H](c2ccc(C(F)(F)F)cc2)[C@@H](C(=O)Nc2cnccc2C(F)(F)F)C1=O = 0%

Quick note, pest or weed control at 250 g/ha for Cc1ccc([C@H]2CN(C)C(=O)[C@@H]2C(=O)Nc2cccc(C#N)c2F)cc1 landed at 15%

What the record says about CN1C[C@H](c2csc3c2CCOC3)[C@@H](C(=O)Nc2cccc(F)c2F)C1=O : pest or weed control at 250 g/ha is 20%

Documented pest or weed control at 250 g/ha of COc1cc([C@H]2CN(C)C(=O)[C@@H]2C(=O)Nc2ccccc2SC)cc(OC)c1OC : 0%

Documented pest or weed control at 250 g/ha of Cc1ccc([C@H]2CNC(=O)[C@@H]2C(=O)Nc2cccc(F)c2F)cc1C : 0%

# compound CN1C[C@H](c2ccc(F)c(Oc3ccccc3)c2)[C@@H](C(=O)Nc2ccccc2S(C)(=O)=O)C1=O ; its pest or weed control at 250 g/ha = 0%

Reported pest or weed control at 250 g/ha of N#Cc1ccc([C@H]2CNC(=O)[C@@H]2C(=O)Nc2cccc(F)c2F)cc1 : 15%

pest or weed control at 250 g/ha for CSc1ccccc1NC(=O)[C@H]1C(=O)NC[C@@H]1c1cc(F)c(F)c(F)c1 is 0%

Entry COc1ccc([C@H]2CN(C)C(=O)[C@@H]2C(=O)Nc2ccccc2SC)c(OC)c1 ; pest or weed control at 250 g/ha = 0%

Briefly, pest or weed control at 250 g/ha measured for Cc1ccc([C@H]2CCN(C)C(=O)[C@@H]2C(=O)Nc2cccc(Cl)c2F)cc1 : 30%

According to the records, this compound CN1C[C@H](c2cc(F)cc(F)c2)[C@@H](C(=O)Nc2cnccc2Cl)C1=O displays pest or weed control at 250 g/ha of 0%

Measured pest or weed control at 250 g/ha, Cc1cc(F)cc([C@H]2CNC(=O)[C@@H]2C(=O)Nc2cccc(F)c2C)c1 : 40%

Entry Cc1c(F)cccc1NC(=O)[C@H]1C(=O)NC[C@@H]1c1cc(F)c(F)c(F)c1 , pest or weed control at 250 g/ha reported as 0%

The reported pest or weed control at 250 g/ha of the compound O=C1NC[C@H](c2ccc(F)c(Oc3ccccc3)c2)[C@H]1C(=O)Nc1cccc(F)c1F was 0%

Summary for this compound, O=C1NC[C@H](c2nccc(C(F)(F)F)n2)[C@H]1C(=O)Nc1ccccc1F : pest or weed control at 250 g/ha is 0%

Short answer for CN1C[C@H](c2cc(C(F)F)cs2)[C@@H](C(=O)Nc2ccccc2F)C1=O : pest or weed control at 250 g/ha was 20%

Please fill in: pest or weed control at 250 g/ha reported for CN1C[C@H](c2csc3c2CCC3)[C@@H](C(=O)Nc2ccccc2F)C1=O = 25%

The compound identified as CN1CC[C@H](c2ccc(C(F)(F)F)cc2)[C@@H](C(=O)Nc2ccccc2C(F)(F)F)C1=O registered its pest or weed control at 250 g/ha at 0%

Sure, the documented pest or weed control at 250 g/ha for CN1CC(c2cccc(Br)c2)C(C(=O)Nc2ccccc2F)C1=O (centres unmarked) is 15%

Form: compound = CN1C[C@H](c2ccc(C(F)F)cc2)[C@@H](C(=O)Nc2cccnc2F)C1=O ; pest or weed control at 250 g/ha = 0%

The compound identified as N#Cc1ccc([C@H]2CNC(=O)[C@@H]2C(=O)Nc2cccc(F)c2F)cc1F registered its pest or weed control at 250 g/ha at 30%

Per the record, CSc1ccccc1NC(=O)[C@H]1C(=O)N(C)C[C@@H]1c1ccc(F)c(Oc2ccccc2)c1 has pest or weed control at 250 g/ha of 0%

pest or weed control at 250 g/ha reported for this compound Cc1nc([C@H]2CN(C)C(=O)[C@@H]2C(=O)Nc2ccccc2F)cs1 : 0%

Field pest or weed control at 250 g/ha (entry Cc1ccc([C@H]2CN(C)C(=O)[C@]2(O)C(=O)Nc2cccc(F)c2F)cc1 (racemic) ) reads 0%

Quick note, pest or weed control at 250 g/ha for CN1C[C@H](c2csc3c2CCCC3)[C@@H](C(=O)Nc2ccc(F)c(F)c2F)C1=O landed at 20%

Sure, the documented pest or weed control at 250 g/ha for O=C(Nc1cccc(F)c1F)[C@H]1C(=S)NC[C@@H]1c1ccc(C(F)(F)F)cc1 (racemic) is 0%
